Known interaction score of a selection of binders
# Test target: T1, O7-bH
# T1 chain: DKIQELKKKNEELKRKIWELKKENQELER
# Assay overview: two-hybrid library CCNG1;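 note: natural log of median RNA to DNA barcode read ratio; higher means stronger binding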
Measure: interaction score

binder="DKNQELKKENEELERKIWELKKKIQELKR [O10-bH]" recorded_value=0.671
binder="DEIQELEKKIEELKRENWELEKENQELER [O3-bH]" recorded_value=-0.247
binder="DKNQELKKENEELEREIWELEKEIQELER [O1-bH]" recorded_value=-0.877
binder="DENQELEKKNEELKRKIWELKKKIQELKR [O2-bH]" recorded_value=-0.662
binder="DKIQELKKEIEELERENWELEKENQELER [O11-bH]" recorded_value=0.102
binder="DKNQELKKKIEELKRENWELEKKIQELKR [O6-bH]" recorded_value=0.89
